Reported Antibacterial activity Streptococcus pneumoniae values for a set of molecules
System: Streptococcus pneumoniae (Chester, ATCC49619)
Test description: broth microdilution MIC assay, Streptococcus pneumoniae
Type: cell-based
Assay conditions: MIC100 class score, 24 h
Parameter: Antibacterial activity Streptococcus pneumoniae

{"Molecule": "Cc1[nH]c(-c2ccc(-c3cccc(Br)c3)s2)nc1-c1ccccc1 [Compound 13]", "Study target": "Streptococcus pneumoniae (Chester, ATCC49619)", "Measured": "2 (MIC100 of 6-10 μg/ml)"}
{"Molecule": "CCCc1[nH]c(-c2ccc(-c3ccc(O)cc3C(F)(F)F)o2)nc1C [Compound 110]", "Study target": "Streptococcus pneumoniae (Chester, ATCC49619)", "Measured": "3 (MIC100 of 2-5 μg/ml)"}
{"Molecule": "Cc1[nH]c(-c2ccc(-c3ccccc3F)s2)nc1-c1ccccc1 [Compound 15]", "Study target": "Streptococcus pneumoniae (Chester, ATCC49619)", "Measured": "3 (MIC100 of 2-5 μg/ml)"}
{"Molecule": "CCc1ccc(-c2[nH]c(-c3ccc(-c4ccccc4C(F)(F)F)o3)nc2C)cc1 [Compound 28]", "Study target": "Streptococcus pneumoniae (Chester, ATCC49619)", "Measured": "3 (MIC100 of 2-5 μg/ml)"}
{"Molecule": "Cc1[nH]c(-c2ccc(-c3ccc(C(F)(F)F)cc3)s2)nc1-c1ccccc1 [Compound 46]", "Study target": "Streptococcus pneumoniae (Chester, ATCC49619)", "Measured": "3 (MIC100 of 2-5 μg/ml)"}

====

Tested on: Staphylococcus aureus MSSA (Newman)
Test description: broth microdilution MIC assay, Staphylococcus aureus MSSA (Newman)
Type: cell-based
Assay conditions: Staphylococcus aureus, 24 h, read-out: Antibacterial activity Staphylococcus aureus (MSSA)

{"Molecule smiles": "Cc1nc(-c2ccc(-c3ccc(O)cc3Cl)o2)[nH]c1-c1ccccc1", "MIC": "1 to 3 µg/mL"}
{"Molecule smiles": "CCc1ccc(-c2ccc(-c3nc(-c4ccccc4)c(C)[nH]3)o2)cc1", "MIC": "3 to 10 µg/mL"}
{"Molecule smiles": "Cc1nc(-c2ccc(-c3ccc4cc[nH]c4c3)o2)[nH]c1-c1ccccc1", "MIC": "3 to 10 µg/mL"}
{"Molecule smiles": "Cc1nc(-c2ccc(-c3ccc(O)cc3F)o2)[nH]c1-c1ccccc1", "MIC": "3 to 10 µg/mL"}
{"Molecule smiles": "Cc1[nH]c(-c2ccc(-c3ccccc3OC(F)(F)F)o2)nc1-c1ccccc1", "MIC": "1 to 3 µg/mL"}
{"Molecule smiles": "Cc1nc(-c2ccc(-c3cc4ccccc4[nH]3)o2)[nH]c1-c1ccccc1", "MIC": "3 to 10 µg/mL"}
{"Molecule smiles": "Cc1nc(-c2ccc(-c3ccc(F)c(F)c3)o2)[nH]c1-c1ccccc1", "MIC": "3 to 10 µg/mL"}
{"Molecule smiles": "FC(F)(F)c1ccccc1-c1ccc(-c2ncc(-c3ccccc3)[nH]2)o1", "MIC": "11 to 201 µg/mL"}
{"Molecule smiles": "Cc1[nH]c(-c2ccc(-c3ccccc3F)o2)nc1-c1ccccc1", "MIC": "3 to 10 µg/mL"}

====

Test system: Human hepatocytes (HepaRG cells)
Test description: human cytotoxicity assay in vitro (CellTiter-Glo), hepatocytes
Format: cell-based
Assay conditions: cytotoxicity class
Reported cytotoxicity cell line H (hepatocytes) values for a set of compounds

{"Molecule smiles": "Cc1nc(-c2ccc(-c3cccc(OC(F)(F)F)c3)o2)[nH]c1-c1ccccc1", "cytotoxicity cell line H (hepatocytes)": 2}
{"Molecule smiles": "FC(F)(F)c1ccccc1-c1ccc(-c2nc(Cl)c(-c3ccccc3)[nH]2)o1", "cytotoxicity cell line H (hepatocytes)": 2}
{"Molecule smiles": "Cc1[nH]c(-c2cc(C)n(-c3ccc(Cl)cc3)c2C)nc1-c1ccccc1", "cytotoxicity cell line H (hepatocytes)": 2}
{"Molecule smiles": "Cc1nc(-c2ccc(-c3ccccc3N(C)C)o2)[nH]c1-c1ccccc1", "cytotoxicity cell line H (hepatocytes)": 3}
{"Molecule smiles": "Cc1nc(-c2ccc(-c3ccc(Cl)cc3)o2)[nH]c1-c1ccccc1", "cytotoxicity cell line H (hepatocytes)": 2}
{"Molecule smiles": "Cc1[nH]c(-c2cc(C)n(-c3ccc4c(c3)CCC4)c2C)nc1-c1ccccc1", "cytotoxicity cell line H (hepatocytes)": 2}
{"Molecule smiles": "Cc1[nH]c(-c2ccc(-c3ccccc3OC(F)(F)F)o2)nc1-c1ccc(Cl)cc1", "cytotoxicity cell line H (hepatocytes)": 2}
{"Molecule smiles": "Cc1[nH]c(-c2cc(C)n(-c3ccc(C(C)C)cc3)c2C)nc1-c1ccccc1", "cytotoxicity cell line H (hepatocytes)": 3}
{"Molecule smiles": "Cc1nc(-c2ccc(-c3cccc(OC(F)(F)F)c3)o2)[nH]c1-c1ccc(F)cc1", "cytotoxicity cell line H (hepatocytes)": 3}
{"Molecule smiles": "Cc1[nH]c(-c2ccc(-c3ccccc3OC(F)(F)F)o2)nc1Cc1ccc(Br)cc1", "cytotoxicity cell line H (hepatocytes)": 3}
{"Molecule smiles": "Cc1nc(-c2ccc(-c3ccc(Cl)cc3Cl)o2)[nH]c1-c1ccccc1", "cytotoxicity cell line H (hepatocytes)": 2}
{"Molecule smiles": "Cc1ccccc1-c1ccc(-c2nc(-c3ccccc3)c(C)[nH]2)o1", "cytotoxicity cell line H (hepatocytes)": 3}
